- assay.remarks: inhibitors of TNFa-induced NFkB p65 translocation, primary screen, imaging, HUVEC, MLSMR starter and 10KST1 sets (AID 438);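 further: compound added about 3h40 before a 20 min TNFalpha stimulation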
- conditions: HUVEC TNFa-induced p65 nuclear translocation; measured here: nuclei count (cytotoxicity indicator), at 2.08 µM
Where a SMILES comes first, the peptide text is derived from it. The star is where a group is joined. Boc = CC(C)(C)OC(=O)*
quantity.name: cell count

Challenge: Entry CCCCOc1cc(=O)[nH]c(=O)[nH]1 has what cell count?
Response given: 379

Challenge: What about this compound? O=C1NC(=O)C(c2cn(-c3ccccc3)nc2-c2ccc(F)cc2)N1 (stereo unspecified)
Response given: 664

Challenge: What about this compound? Cc1ccc(S(=O)(=O)NC(C)C(=O)Nc2ccc(C(N)=O)cc2)cc1 (stereo unspecified)
Response given: 707

Challenge: What about this compound? O=C(c1ccc2c(c1)OCO2)N1CCCN(C(=O)c2ccc3c(c2)OCO3)CC1
Response given: 522

Challenge: What about this compound? CCOC(=O)c1sc2nc(N3CCCC3)c3c(c2c1N)CC(C)(C)OC3
Response given: 410

Challenge: What about this compound? CC(=O)Nc1sc2c(c1CN1CCN(c3ccccn3)CC1)CCCC2
Response given: 698

Challenge: What about this compound? COc1cc(NC(=O)CN(c2cc(C)cc(C)c2)S(=O)(=O)c2c(C)noc2C)cc(OC)c1
Response given: 541

Challenge: What about this compound? Cc1cccc(OCCNC(=O)c2ncn[nH]2)c1
Response given: 228

Challenge: What about this compound? CCOc1ccc(NC(=O)C2CC(=O)N(CC)C(=Nc3ccc4c(c3)OCO4)S2)cc1 (stereo unspecified)
Response given: 356

Challenge: What about this compound? Cc1cc2c(C)nc(Cc3ccccc3)nc2o1
Response given: 561

Challenge: What about this compound? CCOC(=O)CSc1nnc(NC(=O)c2cccc(S(=O)(=O)N3CCCCC3)c2)s1
Response given: 626

Challenge: What about this compound? COc1cc(C)c(N)cc1C(C)C
Response given: 422

Challenge: What about this compound? CCOC(=O)N1CCN(C(=O)CSc2nnc(-c3cccc(Cl)c3)o2)CC1
Response given: 543

Challenge: What about this compound? CCCCC(=O)NCCc1cc2c(C)ccc(C)c2[nH]c1=O
Response given: 699

Challenge: What about this compound? CCOC(=O)NC(Nc1cc(C)on1)(C(F)(F)F)C(F)(F)F
Response given: 705

Challenge: What about this compound? N#CC1=C(N)OC2=C(C(=O)CCC2)[C@]12C(=O)N(CC(N)=O)c1ccccc12
Response given: 485

Challenge: What about this compound? NC(=O)c1ccccc1NC(=O)CN1CCOCC1
Response given: 658

Challenge: What about this compound? COc1ccc(Nc2cc(C)nc(-n3nc(C)cc3C)n2)cc1
Response given: 454

Challenge: What about this compound? O=C(C1=C(O)C(=O)N(CCCN2CCOCC2)C1c1ccccn1)c1cc2ccccc2o1 (stereo unspecified)
Response given: 558

Challenge: What about this compound? Cc1ccc(-n2c(SCC(=O)NCc3ccco3)nc3nc4c(cc3c2=O)COC(C)(C)C4)cc1
Response given: 518

Challenge: What about this compound? CCCCc1[nH]c(=O)c(C#N)c2c1CSC(C)(C)C2
Response given: 551

Challenge: What about this compound? CCCCCn1c(CN2CCN(C)CC2)nc2c1c(=O)n(C)c(=O)n2C
Response given: 521

Challenge: What about this compound? Cc1ccc(-c2ccc(=O)n(CC(=O)NCCCN3CCCCC3C)n2)cc1 (stereo unspecified)
Response given: 397

Challenge: What about this compound? CCC(C)C(NC(=O)OC(C)(C)C)C(=O)NC(CC(C)C)C(N)=O (stereo not drawn) (Boc-Ile-Leu-NH2; configuration not given here)
Response given: 399

Challenge: What about this compound? CCN1CCc2c(C#N)c(N3CCCCC3)nc(N3CCOCC3)c2C1
Response given: 567

Challenge: What about this compound? O=C(COC(=O)CSc1nnc(-c2ccc(Cl)cc2)o1)NCc1ccc2c(c1)OCO2
Response given: 517

The measured values listed here are drawn from PubChem BioAssay.
